# TESTED_SYSTEM: T1, HLA-DR15 (HLA-DRB1*15:01) (human)
# T1 construct: mature; purified from homozygous EBV-transformed lymphoblastoid cells with antibody L243
# EXPERIMENT_SUMMARY: competition ELISA vs biotin-A3 152-166
No end group written: not given here.
QUANTITY_NAME: relative affinity
Simply state the number, no unit and no words.

Q: Look up relative affinity: REVTGNMRAILIDWL-NH2 [CCNB1 195-209]
A: 30

Q: Look up relative affinity: LSYTEESLLPVMQHL-NH2 [CCNB1 369-383]
A: 350

Q: Look up relative affinity: PNLCSEYVKDIYAYL-NH2 [CCNB1 164-178]
A: 28

Q: Look up relative affinity: PMLVPVPVSEPVPEP-NH2 [CCNB1 87-101]
A: 134

Q: Look up relative affinity: EDLCQAFSDVILAVN-NH2 [CCNB1 140-154]
A: 207
